Test system: HOP-62 NSCLC
Assay: NCI-60 one-dose screen, 48 h (100 = growth as untreated, 0 = no growth, -100 = all killed)
Settings: 10 µM unless noted
About 83,000 compounds went through this panel and 20% of them were active in at least one assay; those are over-represented in the sample as a whole.
The recorded growth of each item maps onto one of these classes: lowest (below 70%), middle (70% to below 90%), highest (90% or more)

CCOC(=O)Cn1c(=O)c2c3ccccc3n(C)c2n2nnc(-c3ccccc3)c12 = highest

Okay, next one:
Into which bin does this compound go? Cc1ccc(C)c2c1C(O)(C#Cc1ccccc1)c1ccccc1C2(O)C#Cc1ccccc1 (configuration not stated)
middle

----------
Test system: HOP-62 NSCLC
Assay: NCI-60 one-dose screen, 48 h (100 = growth as untreated, 0 = no growth, -100 = all killed)
Details: 10 µM unless noted
This is part of a sample that, as a whole, favours compounds with a hit. Of some 83,000 tested, about 20% had one in any assay.
READOUT_LABEL: growth (%)
Field format: number, assumed %, no unit text.

Below, each entry is followed by its recorded growth result.
NC(=O)c1c(NC(=O)c2ccc(Cl)cc2)sc2c1CCC(=O)C2 = 106
CCCCN1C(=O)/C(=c2\sc3n(c2=O)NC2C(N=3)N(CC)C(=O)N2CC)c2ccccc21 (centres undefined) = 71.7
C[C@@H]1O[C@@H](O[C@@H]2C[C@H](c3ccc4c(c3O)C(=O)C3=C(C4=O)[C@@]4(O)C(=O)C[C@](C)(O)C[C@@]4(O)C=C3)O[C@H](C)[C@H]2O)C[C@H](O)[C@@H]1O = 107

Continue with the compound presented below.
// assay HOP-62 NSCLC, entry `N=c1sc(Cc2cc(Cl)ccc2Cl)cn1CC(=O)c1ccccc1` , growth value = 74.6

----------
System: HCT-116 colon
Assay: NCI-60 one-dose screen, 48 h
Conditions: 10 µM unless noted
Compounds without any hit were thinned out: in the full panel of roughly 83,000, 20% have a hit. The source made the active and inactive calls. The calls were made as follows: active = growth percent below 10; inactive = the rest.
Answer with one of the outcomes given here: active, inactive

N#C/C(=C\c1ccc(-c2ccc(Cl)cc2)o1)c1ccc(Cl)cc1 = inactive
Oc1c(Cl)cc(Cl)c2ccc(Cn3cc(-c4cccc(C(F)(F)F)c4)nn3)nc12 = inactive
C#CCOc1cccc(-c2ncc3cc(NC(=O)CCl)ccc3n2)c1 = active

Okay, next one:
# fetch the recorded call for CC12CCC(/C(=C/NNc3ccc([N+](=O)[O-])cc3[N+](=O)[O-])C1=O)C2(C)C (centres undefined) here
inactive

----------
Test system: OVCAR-3 ovarian
Assay: NCI-60 one-dose screen, 48 h (100 = growth as untreated, 0 = no growth, -100 = all killed)
Settings: 10 µM unless noted
Method: Growth inhibition of the OVCAR-3 human tumor cell line is measured as a screen for anti-cancer activity. Cells are grown in 96 well plates and exposed to the test compound for 48 hours. Compounds are tested at a single concentration, which is 10^-5 M for most compounds. The reported endpoint is percent growth (GI% or GIPRCNT), where numbers from 0 - 100% represent growth inhibition, and numbers from -100% - 0 represent cell death. For example, a value of 40 represents 60% growth inhibition. […]
About 83,000 compounds went through this panel and 20% of them were active in at least one assay; those are over-represented in the sample as a whole.
READOUT_LABEL: growth (%)
Field format: number, assumed %, no unit text.

Below, each entry is followed by its recorded growth result.
Cn1c(/C=C/[N+](=O)[O-])cc2ccccc21 = 88.3
Cc1c2ccccc2nc2c1ccc1cccnc12 = -1.84
O=C(CCl)Nc1ccc2c(Nc3cc(O)ccc3Cl)ncnc2c1 = -83.4
Cn1c(=O)c2c(c3ccccc31)OC(N)=C(C#N)C21C(=O)c2ccccc2C1=O = 98.7
C/C(=N\O)C(=O)NCCCCCC(=O)Nc1ccccc1 = 109

For `C=CCN=C(N)SCCCCCCSC(N)=NCC=C` the molecule record lists growth as 95.9

For `CCn1cc(C(=O)NN=C2CCCCCC2)c(=O)c2ccc(C)nc21` the molecule record lists growth as 86.2
